target_or_test_system: Opioid receptor (Rattus norvegicus, UniProt P33533+P34975+P33535)
Format: cell membranes, Brain, Membrane
Give measured IC50 for each item. Keep answers brief.
Please reply with the bare figure in pM and do not write the unit itself.

Br.CO[C@@]12CCC(=O)[C@@H]3Oc4c(OCc5ccccc5)ccc5c4[C@@]31CCN(C)C2C5 has a reported IC50 of 800

CN1CC[C@]23CC(=O)CC[C@@]2(O)[C@H]1Cc1cccc(O)c13 has a reported IC50 of 200

CO[C@@]12CCC(=O)C[C@@]13CCN(C)[C@@H]2Cc1ccccc13 has a reported IC50 of 200

CN1CC[C@]23c4c5cccc4O[C@H]2C(=O)CC[C@@]3(O)[C@H]1C5 has a reported IC50 of 1400

COc1ccc2c(c1O)[C@]13CCN(C)[C@H](C2)[C@]1(OC)CCC(=O)C3 has a reported IC50 of 500

COc1ccc2c(c1OC)[C@]13CCN(C)[C@H](C2)[C@]1(O)CCC(=O)C3 has a reported IC50 of 500

COc1cccc2c1[C@]13CCN(C)[C@H](C2)[C@]1(OC)CCC(=O)C3 has a reported IC50 of 300

CN1CC[C@]23CC(=O)CC[C@@]2(O)[C@H]1Cc1ccccc13 has a reported IC50 of 300

----------
Tested on: Mus musculus
assay_text: Compound was evaluated in vivo for its effective dose at which half of the mice were effected using hotplate assay (HPA) by administering the compound subcutaneously.
Type: functional
cond: sc
Give measured ED50 for each item. Keep answers brief.
Please reply with the bare figure in µmol/kg and do not write the unit itself.

CN1CC[C@]23c4c5ccc(O)c4O[C@H]2C(=O)CC[C@@]3(O)[C@H]1C5 has a reported ED50 of 0.3

Br.CO[C@@]12CCC(=O)[C@@H]3Oc4c(O)ccc5c4[C@@]31CCN(C)C2C5 has a reported ED50 of 0.008

Br.CO[C@@]12CCC(=O)[C@@H]3Oc4c(OCc5ccccc5)ccc5c4[C@@]31CCN(C)C2C5 has a reported ED50 of 2.7

CO[C@@]12CCC(=O)[C@@H]3Oc4cccc5c4[C@@]31CCN(C)[C@@H]2C5 has a reported ED50 of 0.3

CN1CC[C@]23c4c5cccc4O[C@H]2C(=O)CC[C@@]3(O)[C@H]1C5 has a reported ED50 of 1.6

----------
target_or_test_system: Opioid receptor (Rattus norvegicus, UniProt P33533+P34975+P33535)
Type: cell membranes, Brain, Membrane
Give measured IC50 for each item. Keep answers brief.
Please reply with the bare figure in nM and do not write the unit itself.

CO[C@@]12CCC(=O)[C@@H]3Oc4cccc5c4[C@@]31CCN(C)[C@@H]2C5 has a reported IC50 of 16

CO[C@@]12CCC(=O)C[C@@]13CCN(C)[C@@H]2Cc1ccccc13 has a reported IC50 of 6

CN1CC[C@]23c4c5cccc4O[C@H]2C(=O)CC[C@@]3(O)[C@H]1C5 has a reported IC50 of 16

COc1cccc2c1[C@]13CCN(C)[C@H](C2)[C@]1(O)CCC(=O)C3 has a reported IC50 of 3.7

Br.CO[C@@]12CCC(=O)[C@@H]3Oc4c(OCc5ccccc5)ccc5c4[C@@]31CCN(C)C2C5 has a reported IC50 of 9

----------
target_or_test_system: Opioid receptor (Rattus norvegicus, UniProt P33533+P34975+P33535)
Type: cell membranes, Brain, Membrane
# label = YES if IC50 < 0.02 nM else NO

Is IC50 strictly under 0.02 nM for the entry COc1cccc2c1[C@]13CCN(C)[C@H](C2)[C@]1(O)CCC(=O)C3 ? NO

Is IC50 strictly under 0.02 nM for the entry Br.CO[C@@]12CCC(=O)[C@@H]3Oc4c(O)ccc5c4[C@@]31CCN(C)C2C5 ? YES

Is IC50 strictly under 0.02 nM for the entry COc1ccc2c(c1OC)[C@]13CCN(C)[C@H](C2)[C@]1(OC)CCC(=O)C3 ? NO

Is IC50 strictly under 0.02 nM for the entry CO[C@@]12CCC(=O)[C@@H]3Oc4cccc5c4[C@@]31CCN(C)[C@@H]2C5 ? NO

# credit: ChEMBL document CHEMBL1122531
